viscosity for assorted compounds
# measurement.setup: 313.15 K; 101 kPa; Liquid; Capillary tube (Ostwald / Ubbelohde) method
Write it as a number; the unit mPa·s goes unstated.

Example entries and their recorded answers appear below.
| compound | meas.value |
| --- | --- |
| CCCOC=O [propyl methanoate] | 0.431 |
| c1ccccc1 [benzene] | 0.497 |
| CCCCc1ccccc1 [butylbenzene] | 0.787 |

Query: viscosity; subject: CC(C)c1ccccc1 [isopropylbenzene]
0.611

Entry under review: CC(C)Cc1ccccc1 [(2-methylpropyl)benzene] . Reported viscosity?
0.784

###

# measurement.setup: 308.15 K; 101 kPa; Liquid; Capillary tube (Ostwald / Ubbelohde) method
Returns yes (1) if the recorded viscosity is greater than or equal to 0.7 mPa·s, and no (0) otherwise.

| molecule | class.label |
| --- | --- |
| CC(C)c1ccccc1 [isopropylbenzene] | no (0) |

Assess whether reported viscosity for CCCOC=O [propyl methanoate] sits at 0.7 mPa·s or higher.
no (0)

Does the molecule c1ccccc1 [benzene] have recorded viscosity that is 0.7 mPa·s or more?
no (0)

Form field: viscosity at least 0.7 mPa·s? Entry: CC(C)Cc1ccccc1 [(2-methylpropyl)benzene]
yes (1)

# bool: viscosity of CCCCc1ccccc1 [butylbenzene] >= 0.7 mPa·s
yes (1)

###

# measurement.setup: 303.15 K; 101 kPa; Liquid; Vibrating tube method
result.type: mass density (kg/m3)
Answer with a number only, understood to be in kg/m3.

| compound | u | mass density |
| --- | --- | --- |
| CC(C)Cc1ccccc1 | kg/m3 | 844.4 |

Which mass density is reported for this compound? c1ccccc1
867.6

Tell me the measured mass density of CCCCc1ccccc1 , please.
851.3

# get_value(readout='mass density', item= CCCOC=O [propyl methanoate] )
893.5

# mass density lookup, item CC(C)c1ccccc1
852.7

###

Entries and their measured viscosity follow.
# measurement.setup: 303.15 K; 101 kPa; Liquid; Capillary tube (Ostwald / Ubbelohde) method
Give your result in mPa·s as a bare value.

| compound | u | meas.value |
| --- | --- | --- |
| CCCOC=O [propyl methanoate] | mPa·s | 0.477 |
| CC(C)Cc1ccccc1 | mPa·s | 0.905 |
| CC(C)c1ccccc1 | mPa·s | 0.69 |
| c1ccccc1 | mPa·s | 0.569 |

Turning now to a further record.
// viscosity lookup, key: CCCCc1ccccc1
0.901

###

# measurement.setup: 308.15 K; 101 kPa; Liquid; Vibrating tube method
Numbers after ± are expanded uncertainties.
Below, each entry is listed with its recorded mass density.
Express your answer as a number followed by its unit.

| compound | mass density |
| --- | --- |
| CCCOC=O [propyl methanoate] | 888.6 ± 0.9 kg/m3 |
| CC(C)c1ccccc1 | 849 ± 0.9 kg/m3 |
| c1ccccc1 | 863.2 ± 0.9 kg/m3 |
| CCCCc1ccccc1 | 848 ± 0.9 kg/m3 |

Alright, here's another compound for you.
Param item = CC(C)Cc1ccccc1 ; retrieve measured mass density.
841.1 ± 0.9 kg/m3

###

# measurement.setup: 313.15 K; 101 kPa; Liquid; Vibrating tube method
Below, each entry is listed with its recorded mass density.
Give the quantity in kg/m3, number only.

Record excerpt, results attached:
| compound | meas.value |
| --- | --- |
| CC(C)c1ccccc1 [isopropylbenzene] | 845.4 |
| c1ccccc1 [benzene] | 858.9 |
| CCCCc1ccccc1 [butylbenzene] | 844.6 |
| CC(C)Cc1ccccc1 [(2-methylpropyl)benzene] | 837.6 |

Next up:
Please give the measured mass density for this compound: CCCOC=O [propyl methanoate]
883.8
